protocol details: Cytotoxicity in mock-infected MT4 CMV-EGFP cells (GFP fluorescence)
Type: cell-based
run parameters: human, 50% cytotoxic concentration as negative log
quantity: CC50 at 3 days

* O=c1c2ccccc2c2nc3ccc(O)cn3c2n1-c1ccc([N+](=O)[O-])cc1 | > 32.4 µM
* O=c1c2ccccc2c2nc3sccn3c2n1-c1ccc([N+](=O)[O-])cc1 | > 32.4 µM
* CN(C)CCOc1ccc2nc3c4ccccc4c(=O)n(-c4ccc([N+](=O)[O-])cc4)c3n2c1 | 13.5 µM
* O=c1c2ccccc2c2nc3ccccn3c2n1-c1ccc([N+](=O)[O-])cc1 | > 32.4 µM
* O=c1c2ccccc2c2nc3ccc(NCCN4CCCC4)cn3c2n1-c1ccc([N+](=O)[O-])cc1 | 2.63 µM
* O=c1c2ccccc2c2nc3cc(CO)ccn3c2n1-c1ccc([N+](=O)[O-])cc1 | > 32.4 µM
* O=c1c2sccc2c2nc3ccccn3c2n1-c1ccc([N+](=O)[O-])cc1 | > 32.4 µM
* O=c1c2ccccc2c2nc3ccc(NCCN4CCCC4)nn3c2n1-c1ccc([N+](=O)[O-])cc1 | 0.832 µM

All figures here come from patent US7994187B2.
